test: reduction of polyQ htt aggregates in cells – imaging, exon1htt(103Q)mCFP cells, high-content imaging, primary screen (AID 483); details: exon1htt(103Q)mCFP cell line, aggregate imaging, at 2 µM; stronger effect = higher value;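 note: compound exposure lasted 3 days before fixation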
Assay Readout: inhibition of aggregation (%)

>>> numeric_result("O=C(CSc1nc2ccccc2o1)NC(=O)NCc1ccco1")
-12.3
>>> numeric_result("Cc1cc(C(=O)CSCCCn2c(=O)[nH]c3ccccc32)c(C)n1C")
28.4
>>> numeric_result("COc1ccc(S(=O)(=O)NCc2ccc(C(=O)O)cc2)cc1")
-11.9
>>> numeric_result("COc1ccccc1OCc1nc2ccccc2[nH]1")
19.9
>>> numeric_result("Cn1c(CN2CCCCC2)nc2cc(NC(=O)c3ccccc3)ccc21")
3.4
>>> numeric_result("COc1ccc(-c2c(=O)n(OCc3ccccn3)c3ccccc3[n+]2[O-])cc1OC")
-10.4
>>> numeric_result("O=C1NC(c2ccccc2)(C(F)(F)F)SC2=CCCCCN12 (stereo unspecified)")
2
>>> numeric_result("COc1ccc(NC(=O)c2oc3ccc(S(=O)(=O)N4CCC5(CC4)OCCO5)cc3c2C)cc1")
10
>>> numeric_result("Cc1ccc2c(c1)NC(=O)C(CC(=O)NCCCN1CCN(c3cc(Cl)ccc3C)CC1)O2 (stereo unspecified)")
-19
>>> numeric_result("O=c1[nH]c(Nc2ccccc2)cc2ccccc12")
-7.1
>>> numeric_result("N#CC1=C(N)OC2=C(CCC/C2=C/c2ccoc2)C1c1ccoc1 (stereo unspecified)")
-17.9

* * *

assay: inhibitors of TNFa-induced NFkB p65 translocation, primary screen, imaging, HUVEC, MLSMR starter and 10KST1 sets (AID 438); conditions: HUVEC TNFa-induced p65 nuclear translocation; measured here: nuclei count (cytotoxicity indicator), at 2.08 µM;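 note: compound added about 3h40 before a 20 min TNFalpha stimulation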
Listing of entries alongside the reported cell count.
Assay Readout: cell count

>>> numeric_result("O=c1oc2c3c4c(cc2cc1-c1nc2ccccc2[nH]1)CCCN4CCC3")
451
>>> numeric_result("c1cc(C(c2nnnn2C2CCCC2)N2CCOCC2)ccn1 (stereo not drawn)")
392
>>> numeric_result("COc1cc(OC)c(OC)cc1CN(C)CCc1ccccn1")
756
>>> numeric_result("Cc1cc(/C=N/n2cnnc2)c(C)n1-c1cccc(Cl)c1")
567
>>> numeric_result("Cn1c(CN2CCCCC2)nc2cc(NC(=O)c3ccccc3)ccc21")
435
>>> numeric_result("Cc1cc(/C=N/n2cnnc2)c(C)n1-c1ccc(Cl)cc1Cl")
485
>>> numeric_result("CC1(C)OC(=O)N(c2cccnc2)C1(C)O (stereo not drawn)")
597
>>> numeric_result("CC(=O)N1c2c(cc(Br)cc2S(=O)(=O)N2CCN(c3ccccn3)CC2)CC1C (stereo not drawn)")
365
>>> numeric_result("Cc1ccc(NC(=O)CC2Nc3ccccc3NC2=O)cc1Cl (stereo not drawn)")
357
>>> numeric_result("Cc1cccc(N2CCN(Cc3c(C)n(C)n(-c4ccccc4)c3=O)CC2)c1C")
451
>>> numeric_result("Cc1nc(C)n(C(C)CC(=O)O)n1 (stereo not drawn)")
635
>>> numeric_result("N#Cc1nc(COc2ccccc2Cl)oc1N1CCCCCC1")
577
>>> numeric_result("CCN(CC)C(=O)C1CCC(CNS(=O)(=O)c2cccc3cccnc23)CC1 (stereo not drawn)")
787
>>> numeric_result("CCOc1cc(C)c(C(C)C)cc1S(=O)(=O)N1CCN(C)CC1")
775
>>> numeric_result("COc1ccccc1CNC(=O)C(C)NS(=O)(=O)c1ccccc1 (stereo not drawn)")
295
>>> numeric_result("O=C(Nc1ccc2c(c1)OCCO2)C1CCN(C(=O)c2ccc(F)cc2)CC1")
397
>>> numeric_result("O=C(O)CCCC(=O)NCCc1ccncc1")
425
>>> numeric_result("CC1=C(C(=O)NCc2ccccn2)C2(CCC(C)CC2)OC1=O (stereo not drawn)")
759
>>> numeric_result("CCOC(=O)c1ccc(NC(=O)CSc2ncccn2)cc1")
366
>>> numeric_result("Cc1cc2c(cc(C(=O)OCC(=O)NCc3cccs3)n2C(C)C)o1")
379
>>> numeric_result("Cc1cc(NC(=O)c2cc(-c3ccco3)on2)n(-c2ccccc2)n1")
326
>>> numeric_result("COCCOC(=O)C1=C(N)OC2=C(C(=O)CC(C)(C)C2)C1c1cccnc1 (stereo not drawn)")
662
>>> numeric_result("CC(CN1CCCCC1)OC(=O)c1ccc2c(c1)OCO2 (stereo not drawn)")
639
>>> numeric_result("O=C(CSc1nnc(-c2cccnc2)o1)OC1CCCCC1")
695
>>> numeric_result("COC(=O)c1cnn2c(C(F)(F)F)cc(-c3ccco3)nc12")
246
>>> numeric_result("O=C(N1CCOCC1)N1CCC(NC(=O)C23CC4CC(CC(C4)C2)C3)CC1")
363
>>> numeric_result("COCCCNC(=O)CSc1nc2ccc(N3CCOCC3)cc2c(=O)n1CCc1ccccc1")
369
>>> numeric_result("CCOc1nc2ccccc2nc1NS(=O)(=O)c1ccccc1")
769
>>> numeric_result("CCCNC(=O)Nc1ccccc1C(=O)Nc1ccc(OC)cc1")
351
>>> numeric_result("CC(C)(C)n1nnnc1C(c1cccs1)N1CCN(Cc2ccccc2)CC1 (stereo not drawn)")
482
>>> numeric_result("CC(=O)Nc1ccc(S(=O)(=O)N2CCN(c3cc(C)nc4ccccc34)CC2)cc1")
730
>>> numeric_result("Cc1cc(=O)n2[nH]c(-c3ccc(Cl)cc3)cc2n1")
540
>>> numeric_result("CCOC(=O)c1ccccc1NC(=O)c1c(O)c2ccccc2n(CC)c1=O")
649
>>> numeric_result("O=C(Nc1nnc(C2CCCCC2)s1)c1cccs1")
511
>>> numeric_result("COC(=O)c1cccc(NC(=O)CN2CCN(Cc3ccccc3)CC2)c1")
382
>>> numeric_result("CCCCn1nnnc1NCc1cccs1")
412
>>> numeric_result("CCC(C)N=C1SCC(C)(/C=N/O)S1 (stereo not drawn)")
367
>>> numeric_result("O=S1(=O)C=CC(Nc2cccc(Cl)c2)C1 (stereo not drawn)")
682
>>> numeric_result("CN(Cc1cccs1)CC(O)COCc1ccco1 (stereo not drawn)")
407
>>> numeric_result("C=CCn1c(SCC(=O)Nc2ccc3c(c2)OCO3)nc2ccccc2c1=O")
388
>>> numeric_result("Cc1ccc(CN2C(=O)CCC2C(=O)NCCCN2CCCC(C)C2)cc1 (stereo not drawn)")
436
>>> numeric_result("Cn1nnnc1SCC(=O)N1CCN(c2ccccc2)CC1")
400
>>> numeric_result("Cc1nc(N2CCN(c3ncccn3)CC2)c2oc3ccccc3c2n1")
583
>>> numeric_result("CCc1nnc(NC(=O)c2ccc(S(=O)(=O)NC3CCCCC3)cc2)s1")
534
>>> numeric_result("O=C(N1CCN(c2ccccc2F)CC1)C12CC3CC(CC(C3)C1)C2")
242
>>> numeric_result("Cc1ccc(NC(=O)CCC(=O)OCC(F)(F)C(F)F)cc1")
551
>>> numeric_result("O=C(NCCCN1CCCC1=O)c1cccnc1")
364
>>> numeric_result("COCCN(C(=O)CNC(=O)c1ccco1)C(C(=O)NC1CCCCC1)c1cccc(OC)c1 (stereo not drawn)")
650
